Test system: COR-L 105
Assay: relative viability (nuclei count vs DMSO), 5 days (fraction); higher = more cells survive
Settings: first compound 2.53 µM
valueType: relative viability
One number for each entry.

Illustrative cases are given below, each with its answer.
Nc1cccc2c1CN(C1CCC(=O)NC1=O)C2=O (stereo unspecified) [Lenalidomide] + N=C(N)NC(=N)NCCc1ccccc1 [Phenformin] (partner 250 µM)
0.554
Nc1cccc2c1CN(C1CCC(=O)NC1=O)C2=O (stereo unspecified) [Lenalidomide] + COc1cc2c(Oc3ccc(NC(=O)C4(C(=O)Nc5ccc(F)cc5)CC4)cc3F)ccnc2cc1OCCCN1CCOCC1 [Foretinib] (partner 0.25 µM)
1.12
Nc1cccc2c1CN(C1CCC(=O)NC1=O)C2=O (stereo unspecified) [Lenalidomide] + C[C@@H](Oc1cc(-c2cnn(C3CCNCC3)c2)cnc1N)c1c(Cl)ccc(F)c1Cl [Crizotinib] (partner 1 µM)
0.986

For every item in the list below, what is its measured relative viability?
1. Nc1cccc2c1CN(C1CCC(=O)NC1=O)C2=O (stereo unspecified) [Lenalidomide] + CC(=O)c1c(C)c2cnc(Nc3ccc(N4CCNCC4)cn3)nc2n(C2CCCC2)c1=O [Palbociclib] (partner 0.5 µM)
2. Nc1cccc2c1CN(C1CCC(=O)NC1=O)C2=O (stereo unspecified) [Lenalidomide] + Cc1nc(Nc2ncc(C(=O)Nc3c(C)cccc3Cl)s2)cc(N2CCN(CCO)CC2)n1 [Dasatinib] (partner 0.075 µM)

1. 0.409
2. 0.427

Field request: relative viability | item: Nc1cccc2c1CN(C1CCC(=O)NC1=O)C2=O (stereo unspecified) [Lenalidomide] + Cc1cc(Nc2cc(N3CCN(C)CC3)nc(Sc3ccc(NC(=O)C4CC4)cc3)n2)n[nH]1 [Tozasertib] (partner 0.1 µM) 0.402

====

System: NCI-H520
Assay: relative viability (nuclei count vs DMSO), 5 days (fraction); higher = more cells survive
Settings: first compound 0.002 µM
valueType: relative viability
Numbers only.

For every item in the list below, what is its measured relative viability?
1. CCNC(=O)c1noc(-c2cc(C(C)C)c(O)cc2O)c1-c1ccc(CN2CCOCC2)cc1 [Luminespib] + CS(=O)(=O)CCNCc1ccc(-c2ccc3ncnc(Nc4ccc(OCc5cccc(F)c5)c(Cl)c4)c3c2)o1 [Lapatinib] (partner 2 µM)
2. CCNC(=O)c1noc(-c2cc(C(C)C)c(O)cc2O)c1-c1ccc(CN2CCOCC2)cc1 [Luminespib] + C[C@]1(O)C[C@@H](c2nc(-c3ccc4ccc(-c5ccccc5)nc4c3)c3c(N)nccn32)C1 [Linsitinib] (partner 1 µM)
3. CCNC(=O)c1noc(-c2cc(C(C)C)c(O)cc2O)c1-c1ccc(CN2CCOCC2)cc1 [Luminespib] + CC(=O)c1c(C)c2cnc(Nc3ccc(N4CCNCC4)cn3)nc2n(C2CCCC2)c1=O [Palbociclib] (partner 0.5 µM)

[0.848, 1.27, 0.301]

For every item in the list below, what is its measured relative viability?
1. CCNC(=O)c1noc(-c2cc(C(C)C)c(O)cc2O)c1-c1ccc(CN2CCOCC2)cc1 [Luminespib] + Cc1nc(NC(=O)N2CCC[C@H]2C(N)=O)sc1-c1ccnc(C(C)(C)C(F)(F)F)c1 [Alpelisib] (partner 2 µM)
2. CCNC(=O)c1noc(-c2cc(C(C)C)c(O)cc2O)c1-c1ccc(CN2CCOCC2)cc1 [Luminespib] + O=C(c1cc(Cc2n[nH]c(=O)c3ccccc23)ccc1F)N1CCN(C(=O)C2CC2)CC1 [Olaparib] (partner 8 µM)

[0.916, 0.361]

====

System: HOP-62
Assay: relative viability (nuclei count vs DMSO), 5 days (fraction); higher = more cells survive
Details: first compound 0.2 µM
valueType: relative viability
Give bare numbers.

CCNC(=O)c1noc(-c2cc(C(C)C)c(O)cc2O)c1-c1ccc(CN2CCOCC2)cc1 [Luminespib] + Nc1ncn([C@H]2C[C@H](O)[C@@H](CO)O2)c(=O)n1 [Decitabine] (partner 2 µM)
0.174

From here, focus on the item given below.
Field request: relative viability | item: CCNC(=O)c1noc(-c2cc(C(C)C)c(O)cc2O)c1-c1ccc(CN2CCOCC2)cc1 [Luminespib] + COc1cc2c(Oc3ccc(NC(=O)C4(C(=O)Nc5ccc(F)cc5)CC4)cc3F)ccnc2cc1OCCCN1CCOCC1 [Foretinib] (partner 0.25 µM) 0.145

====

For each entry below, report its relative viability value.
System: SK-LU-1
Test: relative viability (nuclei count vs DMSO), 5 days (fraction); higher = more cells survive
Settings: first compound 0.06325 µM
Give bare numbers.

Illustrative cases are given below, each with its answer.
CCNC(=O)c1noc(-c2cc(C(C)C)c(O)cc2O)c1-c1ccc(CN2CCOCC2)cc1 [Luminespib] + Nc1nc2[nH]cc(CCc3ccc(C(=O)N[C@@H](CCC(=O)O)C(=O)O)cc3)c2c(=O)[nH]1 [Pemetrexed] (partner 0.2 µM)
0.244
CCNC(=O)c1noc(-c2cc(C(C)C)c(O)cc2O)c1-c1ccc(CN2CCOCC2)cc1 [Luminespib] + CC(=O)Nc1cccc(-n2c(=O)n(C3CC3)c(=O)c3c(Nc4ccc(I)cc4F)n(C)c(=O)c(C)c32)c1 [Trametinib] (partner 0.02 µM)
0.178
CCNC(=O)c1noc(-c2cc(C(C)C)c(O)cc2O)c1-c1ccc(CN2CCOCC2)cc1 [Luminespib] + O=C(c1cc(Cc2n[nH]c(=O)c3ccccc23)ccc1F)N1CCN(C(=O)C2CC2)CC1 [Olaparib] (partner 8 µM)
0.187

Field request: relative viability | item: CCNC(=O)c1noc(-c2cc(C(C)C)c(O)cc2O)c1-c1ccc(CN2CCOCC2)cc1 [Luminespib] + CS(=O)(=O)N1CCN(Cc2cc3nc(-c4cccc5[nH]ncc45)nc(N4CCOCC4)c3s2)CC1 [Pictilisib] (partner 1 µM) 0.161

====

System: NCI-H661
Test: relative viability (nuclei count vs DMSO), 5 days (fraction); higher = more cells survive
Details: first compound 20 µM
For each entry below, report its relative viability value.
Numbers only.

Illustrative cases are given below, each with its answer.
Cc1csc(=NC2CCCCC2)n1/N=C/c1ccc(O)c(O)c1O [MIM1] + CCNC(=O)c1noc(-c2cc(C(C)C)c(O)cc2O)c1-c1ccc(CN2CCOCC2)cc1 [Luminespib] (partner 0.01 µM)
0.269
Cc1csc(=NC2CCCCC2)n1/N=C/c1ccc(O)c(O)c1O [MIM1] + COc1cccc2cc(-c3nc([C@H]4CC[C@H](C(=O)O)CC4)n4ncnc(N)c34)[nH]c12 [OSI-027] (partner 0.5 µM)
0.31
Cc1csc(=NC2CCCCC2)n1/N=C/c1ccc(O)c(O)c1O [MIM1] + C[C@]1(O)C[C@@H](c2nc(-c3ccc4ccc(-c5ccccc5)nc4c3)c3c(N)nccn32)C1 [Linsitinib] (partner 1 µM)
0.255
Cc1csc(=NC2CCCCC2)n1/N=C/c1ccc(O)c(O)c1O [MIM1] + Nc1ncn([C@H]2C[C@H](O)[C@@H](CO)O2)c(=O)n1 [Decitabine] (partner 2 µM)
0.284
Cc1csc(=NC2CCCCC2)n1/N=C/c1ccc(O)c(O)c1O [MIM1] + Cc1cc(Nc2cc(N3CCN(C)CC3)nc(Sc3ccc(NC(=O)C4CC4)cc3)n2)n[nH]1 [Tozasertib] (partner 0.1 µM)
0.285

From here, focus on the item given below.
Field request: relative viability | item: Cc1csc(=NC2CCCCC2)n1/N=C/c1ccc(O)c(O)c1O [MIM1] + C[C@@H](Oc1cc(-c2cnn(C3CCNCC3)c2)cnc1N)c1c(Cl)ccc(F)c1Cl [Crizotinib] (partner 1 µM) 0.531

====

For each entry below, report its relative viability value.
Test system: HARA
Experiment: relative viability (nuclei count vs DMSO), 5 days (fraction); higher = more cells survive
Details: first compound 8 µM
Numbers only.

For every item in the list below, what is its measured relative viability?
1. Nc1cccc2c1CN(C1CCC(=O)NC1=O)C2=O (centres undefined) [Lenalidomide] + CS(=O)(=O)N1CCN(Cc2cc3nc(-c4cccc5[nH]ncc45)nc(N4CCOCC4)c3s2)CC1 [Pictilisib] (partner 1 µM)
2. Nc1cccc2c1CN(C1CCC(=O)NC1=O)C2=O (centres undefined) [Lenalidomide] + O=C(c1cc(Cc2n[nH]c(=O)c3ccccc23)ccc1F)N1CCN(C(=O)C2CC2)CC1 [Olaparib] (partner 8 µM)
3. Nc1cccc2c1CN(C1CCC(=O)NC1=O)C2=O (centres undefined) [Lenalidomide] + CC(C)C[C@H](NC(=O)[C@H](Cc1ccccc1)NC(=O)c1cnccn1)B(O)O [Bortezomib] (partner 0.002 µM)

[0.206, 1.01, 1.19]

Field request: relative viability | item: Nc1cccc2c1CN(C1CCC(=O)NC1=O)C2=O (centres undefined) [Lenalidomide] + C[C@]1(O)C[C@@H](c2nc(-c3ccc4ccc(-c5ccccc5)nc4c3)c3c(N)nccn32)C1 [Linsitinib] (partner 1 µM) 0.906

====

For each entry below, report its relative viability value.
Test system: NCI-H1975
Test: relative viability (nuclei count vs DMSO), 5 days (fraction); higher = more cells survive
Details: first compound 20 µM
Numbers only.

Illustrative cases are given below, each with its answer.
Cc1csc(=NC2CCCCC2)n1/N=C/c1ccc(O)c(O)c1O [MIM1] + Nc1ncn([C@H]2C[C@H](O)[C@@H](CO)O2)c(=O)n1 [Decitabine] (partner 2 µM)
0.137
Cc1csc(=NC2CCCCC2)n1/N=C/c1ccc(O)c(O)c1O [MIM1] + CC(C)C[C@H](NC(=O)[C@H](Cc1ccccc1)NC(=O)c1cnccn1)B(O)O [Bortezomib] (partner 0.002 µM)
0.221
Cc1csc(=NC2CCCCC2)n1/N=C/c1ccc(O)c(O)c1O [MIM1] + CC(=O)c1c(C)c2cnc(Nc3ccc(N4CCNCC4)cn3)nc2n(C2CCCC2)c1=O [Palbociclib] (partner 0.5 µM)
0.169
Cc1csc(=NC2CCCCC2)n1/N=C/c1ccc(O)c(O)c1O [MIM1] + C[C@]1(O)C[C@@H](c2nc(-c3ccc4ccc(-c5ccccc5)nc4c3)c3c(N)nccn32)C1 [Linsitinib] (partner 1 µM)
0.546
Cc1csc(=NC2CCCCC2)n1/N=C/c1ccc(O)c(O)c1O [MIM1] + CS(=O)(=O)N1CCN(Cc2cc3nc(-c4cccc5[nH]ncc45)nc(N4CCOCC4)c3s2)CC1 [Pictilisib] (partner 1 µM)
0.312

Field request: relative viability | item: Cc1csc(=NC2CCCCC2)n1/N=C/c1ccc(O)c(O)c1O [MIM1] + Nc1nc2[nH]cc(CCc3ccc(C(=O)N[C@@H](CCC(=O)O)C(=O)O)cc3)c2c(=O)[nH]1 [Pemetrexed] (partner 0.2 µM) 0.187
